The reported measurements were obtained from patent US20190106487A1.

Target: T1, mIL1RAcP-Fc (murine, UniProt Q61730 21-359)
T1 construct: also called P013_04; P013-04
T1 sequence (looked up): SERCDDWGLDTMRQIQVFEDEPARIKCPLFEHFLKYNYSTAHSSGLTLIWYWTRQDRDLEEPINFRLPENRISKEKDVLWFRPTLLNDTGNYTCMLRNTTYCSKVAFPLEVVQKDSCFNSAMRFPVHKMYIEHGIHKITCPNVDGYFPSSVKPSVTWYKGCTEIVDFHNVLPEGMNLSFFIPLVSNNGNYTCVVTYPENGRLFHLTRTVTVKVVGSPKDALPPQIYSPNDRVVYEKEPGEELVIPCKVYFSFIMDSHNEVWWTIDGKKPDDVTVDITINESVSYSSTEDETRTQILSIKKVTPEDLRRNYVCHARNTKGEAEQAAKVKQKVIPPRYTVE
Experiment: ELISA, primary supernatant, coated mu-IL-1RAcP-Fc
# Lookup of reported mu-IL1RaP ELISA (OD) keyed by entry
Output spec: scalar in OD, unitless text.

P013.S.02.B.B02 (antibody, V domains shown, rabbit monoclonal antibody; also called P013.A.00045.H10) VH: LAQSGGGAEGGLVKPGGSLELCCEASGFSLSSSYWICWVRQAPGKGLEWIGCIYTGSSGNTYYASWVNGRFTLSRDIDRSTGCLQLNSLTAADTAMYYCARDANSHYMMNLWGQGTLVTVSS VL: ALVMTQTPSPVSAAVGGTVTINCQASEDIYSNLAWFQQKPGQPPKLLIYDASTLASGVPSRFSGSGSGTEFTLTISGLQSDDAATYYCLGVYTYISADGTLVYNAFGGGTEVVVR :: -0.1

Pending binder:
Would you kindly share the measured mu-IL1RaP ELISA (OD) for P013.S.02.B.D01 (antibody, V domains shown, rabbit monoclonal antibody; also called P013.A.00141.G02) VH: LEQSGGGAEGGLVKPGGSLELCCKASGFSLSSNYWMCWVRQAPGKGLEWIGCIYAGSSDSTYYASWVNGRFTLSRDIDQSTGCLQLNSLTAADTAMYYCASPGYGGYGYYGLWGQGTLVTVSS VL: ALVMTQTPSPVSAAVGGTVTINCQASEDIYSNLAWFQQKPGQPPKLLIYDASTLASGVPSRFSGSGSGTEFTLTISGLQSDDAATYYCLGVYTYISPDGTDNAFGGGTEVVVK ?
-0.1
